target: α1β3γ2 GABAA/BzR (Homo sapiens, UniProt P14867+P18507); experiment: Competition binding to HEK cell membranes, α1β3γ2; parameters: expressed in transfected cells; conditions: read-out: Ki α1
Ki: recorded values
Return type: number; implicit unit nM.

Example entries and their recorded answers appear below.
Can you share its Ki? I mean this compound: CCC(C)OC(=O)c1cc2c(cn1)[nH]c1ccccc12 (stereo not drawn) [CM-A64]
18

Also check O=C(OCC(F)(F)F)c1cc2c(cn1)[nH]c1ccc(-c3cccs3)cc12 [WY-B-27-2]
9.19

Also check C[Si](C)(C)C#Cc1ccc2c(c1)C(=O)N1CCC[C@H]1c1c(C(=O)OCC(F)(F)F)ncn1-2 [JYI-11]
5000

---
Can you share its Ki? I mean this compound: O=C(OCC(F)(F)F)c1ncn2c1CN=C(c1ccccc1)c1ccccc1-2 [DM-II-30]
17.6

Also check CC[C@H](C)OC(=O)c1cc2c(cn1)[nH]c1ccccc12 [CM-A50 (S)]
17

Also check CC(C)(C)OC(=O)c1ncn2c1C1CCCN1C(=O)c1cc(Br)ccc1-2 (stereo not drawn) [JYI-01]
59.2

Also check S=C=Nc1ccc2[nH]c3cnc(N=C=S)cc3c2c1 [EDC-I-093]
13.6

Also check CC[C@H](C)OC(=O)c1ncn2c1[C@@H]1CCCN1C(=O)c1cc(F)ccc1-2 [CM-B44 (ss)]
32

Also check CCCC(=O)c1cc2c(cn1)[nH]c1ccccc12 [MSA-IV-35]
2.1

* * *

target: α6β3γ2 GABAA/BzR (Homo sapiens, UniProt P18507+Q16445); assay: Competition binding to HEK cell membranes, α6β3γ2; parameters: expressed in transfected cells; details: read-out: Ki α6
READOUT KIND: Ki (nM)
Return type: number; implicit unit nM.

Example entries and their recorded answers appear below.
Can you share its Ki? I mean this compound: C#Cc1ccc2c(c1)C(c1cccs1)=NCc1c(C(=O)OCC)ncn1-2
362

Also check CC(C)(C)OC(=O)c1ncn2c1[C@@H]1CCCN1C(=O)c1cc(-c3cccs3)ccc1-2
12.7

---
Can you share its Ki? I mean this compound: CN1Cc2c(C(=O)OC3CC3)ncn2-c2ccc(Cl)cc2C1=O
168

Also check COc1ccc2c(c1)C(=O)N1CC[C@H]1c1c(C(=O)OC(C)(C)C)ncn1-2
0.23

Also check C#Cc1ccc2c(c1)C(c1ccccc1F)=NCc1c(C(=O)OCC(F)(F)F)ncn1-2 [JYI-59]
5000

* * *

target: α4β3γ2 GABAA/BzR (Homo sapiens, UniProt P18507+P48169); construct: expressed in transfected cells; host or cells: LTK cells (given for XLi-093 only); assay: biochemical; format: binding; settings: read-out: Ki α4
READOUT KIND: Ki (nM)
Return type: number; implicit unit nM.

Can you share its Ki? I mean this compound: CCC(OC(=O)c1ncn2c1C1CCCN1C(=O)c1cc(Br)ccc1-2)C(F)(F)F (mixture of isomers) [CM-B34]
114

Also check CC(C)(C)OC(=O)c1cc2c(cn1)[nH]c1ccc(I)cc12
1000

Also check CC(OC(=O)c1ncn2c1C1CCCN1C(=O)c1ccccc1-2)C(F)(F)F (stereo not shown)
333

Please look at the following compound next.
Can you share its Ki? I mean this compound: COc1ccc2c(c1)C(=O)N1CC[C@H]1c1c(C(=O)OC(C)(C)C)ncn1-2
0.15
